// reported growth per item
# Test system: OVCAR-3 ovarian
# protocol: NCI-60 one-dose screen, 48 h (100 = growth as untreated, 0 = no growth, -100 = all killed)
# test parameters: 10 µM unless noted
# Method: Growth inhibition of the OVCAR-3 human tumor cell line is measured as a screen for anti-cancer activity. Cells are grown in 96 well plates and exposed to the test compound for 48 hours. Compounds are tested at a single concentration, which is 10^-5 M for most compounds. The reported endpoint is percent growth (GI% or GIPRCNT), where numbers from 0 - 100% represent growth inhibition, and numbers from -100% - 0 represent cell death. For example, a value of 40 represents 60% growth inhibition. […]
This is part of a sample that, as a whole, favours compounds with a hit. Of some 83,000 tested, about 20% had one in any assay.
measurement name: growth (%)

CS(=O)(=O)N(c1cc(-c2ccc3ncnc(Nc4cccc(Cl)c4)c3c2)cnc1Cl)S(C)(=O)=O	11.1
NC(C(=O)O)C(O)c1ccc(OCc2ccccc2)c(OCc2ccccc2)c1 (stereo not given)	106
O=S(=O)(NCCCNc1cc(-c2cn(-c3ccccc3)nc2-c2cccc(O)c2)ccn1)c1ccc(C(F)(F)F)cc1	49.6
O=S=Nc1ccc([N+](=O)[O-])cc1	98.3
CCN1C(=O)N(CC)C2C1NN=c1s/c(=C3\C(=O)N(C4CCCC4)c4ccccc43)c(=O)n12 (stereo not given)	-35.3
